Source: the supplement of paper PMC12636033

We begin with a simple list: items and their reported PBM 8-mer E-score.
test system: muMax20 (Max(13-93) K31hArg/K57hArg, M65Nle); test: PBM 8-mer E-score (E-score (rank enrichment, -0.5 to 0.5)); higher = stronger preferential binding
Whole data set: some 33,000 sequences, median “E-score (rank enrichment, -0.5 to 0.5)” near -0.0068, cut for the highest 2% near 0.24. This is one part of a sample in which the highest values are shown more often than they occur.
A bare number is all that is needed in reply.

Below, 4 sequences whose answers are already recorded.
# Monomer sequence, Tgt, PBM 8-mer E-score
data = [
    ("CTCGAGGA", "muMax20 (Max(13-93) K31hArg/K57hArg, M65Nle)", -0.0146),
    ("TGAGAACA", "muMax20 (Max(13-93) K31hArg/K57hArg, M65Nle)", 0.115),
    ("AAGCATGT", "muMax20 (Max(13-93) K31hArg/K57hArg, M65Nle)", 0.218),
    ("TGAGCGCA", "muMax20 (Max(13-93) K31hArg/K57hArg, M65Nle)", -0.0144),
]

Which PBM 8-mer E-score is reported for this sequence? "ATGCATTA"
0.28

Which PBM 8-mer E-score is reported for this sequence? "AAGCATGC"
0.254

###

tested on: muMax20 (Max(13-93) K31hArg/K57hArg, M65Nle); assay: PBM 8-mer E-score (E-score (rank enrichment, -0.5 to 0.5)); higher = stronger preferential binding
The full ranking holds about 33,000 sequences; the median of “E-score (rank enrichment, -0.5 to 0.5)” is about -0.0068, and the highest 2% start at about 0.24. Shown is part of a subset that was picked to be rich in the highest values.
We begin with a simple list: items and their reported PBM 8-mer E-score.
A bare number is all that is needed in reply.

Below, 4 sequences whose answers are already recorded.
# Monomer sequence, Observed result
records = [
    ("ACACGTGA", 0.432),
    ("ACACGTCG", -0.148),
    ("ATACGTGA", 0.068),
    ("ACACGTGC", 0.452),
]

Which PBM 8-mer E-score is reported for this sequence? "ATTATGTG"
0.164

Which PBM 8-mer E-score is reported for this sequence? "AGACGTGC"
-0.0738

Which PBM 8-mer E-score is reported for this sequence? "CCCACAAA"
0.183

Which PBM 8-mer E-score is reported for this sequence? "ACGGCCGG"
-0.242

Which PBM 8-mer E-score is reported for this sequence? "TAGTACTA"
0.0405

Which PBM 8-mer E-score is reported for this sequence? "ATAATGTC"
0.0566

Which PBM 8-mer E-score is reported for this sequence? "AGCAGTAA"
-0.0641

###

system: muMax20 (Max(13-93) K31hArg/K57hArg, M65Nle); experiment: PBM 8-mer E-score (E-score (rank enrichment, -0.5 to 0.5)); higher = stronger preferential binding
In all, about 33,000 sequences were measured (“E-score (rank enrichment, -0.5 to 0.5)”: median about -0.0068, highest 2% from about 0.24 on). This excerpt belongs to a sample that is enriched for the highest values.
// map PBM 8-mer E-score to label using bucket A: < -0.1; bucket B: ≥ -0.1 and < 0.2; bucket C: ≥ 0.2

Here's what some known entries look like.
# Monomer sequence, Tgt, Qualitative label
data = [
    ("GGCCCTAA", "muMax20 (Max(13-93) K31hArg/K57hArg, M65Nle)", "bucket B"),
    ("ACGTGGAT", "muMax20 (Max(13-93) K31hArg/K57hArg, M65Nle)", "bucket C"),
    ("ACCACCGG", "muMax20 (Max(13-93) K31hArg/K57hArg, M65Nle)", "bucket A"),
    ("CACTGCAC", "muMax20 (Max(13-93) K31hArg/K57hArg, M65Nle)", "bucket B"),
    ("ACCCCGTC", "muMax20 (Max(13-93) K31hArg/K57hArg, M65Nle)", "bucket A"),
    ("ACGTGGAG", "muMax20 (Max(13-93) K31hArg/K57hArg, M65Nle)", "bucket C"),
    ("ACGTGGAC", "muMax20 (Max(13-93) K31hArg/K57hArg, M65Nle)", "bucket C"),
    ("ATCTCAGC", "muMax20 (Max(13-93) K31hArg/K57hArg, M65Nle)", "bucket A"),
    ("CCGTGGAG", "muMax20 (Max(13-93) K31hArg/K57hArg, M65Nle)", "bucket A"),
    ("AAGTGGAT", "muMax20 (Max(13-93) K31hArg/K57hArg, M65Nle)", "bucket B"),
]

Next sequence, please.
For this sequence, which bin applies? "ACGTGGGG"
bucket B
